Source of measurements: patent US20220323594A1

Test system: HeLa cells
ASSAY_OVERVIEW: In vitro Fluc expression with variable peptoid:mRNA mass ratio, 2% DMG-PEG2000
Type: cell-based
CONDITIONS: 24 h, 2% (w/w) DMG-PEG2000, peptoid:mRNA 2:1
MEASURED_PARAMETER: Observed Luciferase Expression (RLU) for Given Formulation Mass Ratio 2:1

CCCCCCCCCCN(CC(N)=O)C(=O)CN(CCCCCCCCCC)C(=O)CN(CCCCCCCCCC)C(=O)CN(CCCCCCCCCC)C(=O)CN(CCc1ccccc1)C(=O)CN(CCc1ccccc1)C(=O)CN(CCNC)C(=O)CN(CCc1ccccc1)C(=O)CN(CCc1ccccc1)C(=O)CN(CCNC)C(=O)CN(CCc1ccccc1)C(=O)CN(CCc1ccccc1)C(=O)CN(CCNC)C(=O)CN(CCc1ccccc1)C(=O)CN(CCc1ccccc1)C(=O)CNCCNC [Compound 26]    4.91E+02 RLU

Consider now this further molecule.
Query: Returns the measured Observed Luciferase Expression (RLU) for Given Formulation Mass Ratio 2:1 for the input molecule. Input: CCCCCCCCCCN(CC(N)=O)C(=O)CN(CCCCCCCCCC)C(=O)CN(CCc1ccccc1)C(=O)CN(CCc1ccccc1)C(=O)CN(CC1CCCN1)C(=O)CN(CCc1ccccc1)C(=O)CN(CCc1ccccc1)C(=O)CN(CC1CCCN1)C(=O)CN(CCc1ccccc1)C(=O)CN(CCc1ccccc1)C(=O)CNCC1CCCN1 (centres unmarked) [Compound 36]
Reply: 9.24E+02 RLU

----------
ASSAY_OVERVIEW: MTT viability assay after treatment with Fluc mRNA/amino lipidated peptoid formulations
Type: cell-based
CONDITIONS: human, HeLa cells, Relative Viability (%) No PEG
MEASURED_PARAMETER: viability at 8 h, 500 ng/well (%)
Express the result in % but write the number alone.

CCCCCCCCCCN(CC(N)=O)C(=O)CN(CCCCCCCCCC)C(=O)CN(CCc1ccccc1)C(=O)CN(CCc1ccccc1)C(=O)CN(CCN)C(=O)CN(CCc1ccccc1)C(=O)CN(CCc1ccccc1)C(=O)CN(CCN)C(=O)CN(CCc1ccccc1)C(=O)CN(CCc1ccccc1)C(=O)CNCCN    90.6

Consider now this further molecule.
Query: Returns the measured viability at 8 h, 500 ng/well for the input molecule. Input: CCCCCCCCCCN(CC(N)=O)C(=O)CN(CCCCCCCCCC)C(=O)CN(CCc1ccccc1)C(=O)CN(CCc1ccccc1)C(=O)CN(CCN)C(=O)CN(CCc1ccccc1)C(=O)CN(CCc1ccccc1)C(=O)CN(CCN)C(=O)CN(CCc1ccccc1)C(=O)CN(CCc1ccccc1)C(=O)CN(CCN)C(=O)CN(CCc1ccccc1)C(=O)CN(CCc1ccccc1)C(=O)CN(CCN)C(=O)CN(CCc1ccccc1)C(=O)CN(CCc1ccccc1)C(=O)CNCCN
Reply: 98.5

----------
Test system: HeLa cells
ASSAY_OVERVIEW: In vitro Fluc expression with variable peptoid:mRNA mass ratio, 2% DMG-PEG2000
Format: cell-based
CONDITIONS: 24 h, 2% (w/w) DMG-PEG2000, peptoid:mRNA 2:1
MEASURED_PARAMETER: Observed Luciferase Expression (RLU) for Given Formulation Mass Ratio 2:1
Express the result in RLU but write the number alone.

Query: Returns the measured Observed Luciferase Expression (RLU) for Given Formulation Mass Ratio 2:1 for the input molecule. Input: CCCCCCCCCCN(CC(N)=O)C(=O)CN(CCCCCCCCCC)C(=O)CN(CCc1ccccc1)C(=O)CN(CCN)C(=O)CN(CCc1ccccc1)C(=O)CN(CCN)C(=O)CN(CCc1ccccc1)C(=O)CNCCN
Reply: 2.68E+01

Query: Returns the measured Observed Luciferase Expression (RLU) for Given Formulation Mass Ratio 2:1 for the input molecule. Input: CCCCCCCCCCCCCCCCCCN(CC(N)=O)C(=O)CN(CCCCCCCCCCCCCCCCCC)C(=O)CN(CCc1ccccc1)C(=O)CN(CCc1ccccc1)C(=O)CN(CCN)C(=O)CN(CCc1ccccc1)C(=O)CN(CCc1ccccc1)C(=O)CN(CCN)C(=O)CN(CCc1ccccc1)C(=O)CN(CCc1ccccc1)C(=O)CNCCN
Reply: 5.81E+02

Query: Returns the measured Observed Luciferase Expression (RLU) for Given Formulation Mass Ratio 2:1 for the input molecule. Input: CCCCCCCCCCN(CC(N)=O)C(=O)CN(CCc1ccccc1)C(=O)CN(CCc1ccccc1)C(=O)CN(CCN)C(=O)CN(CCc1ccccc1)C(=O)CN(CCc1ccccc1)C(=O)CN(CCN)C(=O)CN(CCc1ccccc1)C(=O)CN(CCc1ccccc1)C(=O)CNCCN
Reply: 8.18E+01

Query: Returns the measured Observed Luciferase Expression (RLU) for Given Formulation Mass Ratio 2:1 for the input molecule. Input: CCCCCCCCCCN(CC(N)=O)C(=O)CN(CCCCCCCCCC)C(=O)CN(CCCCCCCCCC)C(=O)CN(CCCCCCCCCC)C(=O)CN(CCc1ccccc1)C(=O)CN(CCc1ccccc1)C(=O)CN(CC1CCNCC1)C(=O)CN(CCc1ccccc1)C(=O)CN(CCc1ccccc1)C(=O)CN(CC1CCNCC1)C(=O)CN(CCc1ccccc1)C(=O)CN(CCc1ccccc1)C(=O)CNCC1CCNCC1
Reply: 2.07E+02
